# system: T1, 14-3-3ε (human, UniProt P62258 1-255)
# T1 chain: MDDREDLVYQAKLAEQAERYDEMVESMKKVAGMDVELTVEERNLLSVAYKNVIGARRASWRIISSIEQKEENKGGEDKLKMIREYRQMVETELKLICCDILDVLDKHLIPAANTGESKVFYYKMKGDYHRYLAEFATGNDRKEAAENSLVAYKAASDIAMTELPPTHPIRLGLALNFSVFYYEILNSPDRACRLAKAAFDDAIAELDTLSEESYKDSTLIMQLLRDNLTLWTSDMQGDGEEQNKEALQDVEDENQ
# test name: FP
pKd: −log10 of the molar value. Non-standard residues stand in square brackets, D forms with d. No end group written: not given here. pS = N[C@@H](COP(=O)(O)O)C(=O)O
measurement type: pKd

binder	pKd
SFTDHQRLMKRRK[pS] (peptide, UniProt Q9NPC2 360-374, looked up, also: fluorescein label, position not given here, TASK-3 (KCNK9), human, C-terminal peptide with phosphorylated S373 but lacking the C-terminal valine V374; ends at pS373; source: synthetic peptide, bought: Peps4Life Sciences) [TASK-3 pS373 ΔV374 C-terminal fluorescent peptide]	4.74

P = SLSTFRGLMKRRS[pS]V (also: fluorescein label, position not given here) [TASK-1 pS393 C-terminal fluorescent peptide (last 15 amino acids)]
Q = SFTDHQRLMKRRK[pS]V (also: fluorescein label, position not given here) [TASK-3 pS373 C-terminal fluorescent peptide (last 15 amino acids)]
Would you mind telling me which has the lower recorded pKd between P and Q ? I would appreciate it if you answered with the label of your choice.
P
